System: TK-10 renal
Experiment: NCI tumour cell line growth inhibition, 48 h
recorded-metric: TGI

Worked set:
Q: Entry `Cc1cc(Cl)nc2nc(Cl)c(N)cc12` , system TK-10 renal: what TGI was measured?
Ans: 13.6 µM

Q: Entry CC(=O)OC1CCC2(C)C(CCC3C2CC(=O)C2(C)C3CC(N3CC3)C2C(C)=O)C1 (configuration not stated) , system TK-10 renal: what TGI was measured?
Ans: 45.3 µM

Q: Entry `CCOC(=O)NN(C(=O)OCC)C(C(=O)C1=CCCCC1)N(NC(=O)OCC)C(=O)OCC` , system TK-10 renal: what TGI was measured?
Ans: > 100 µM

Next:
Q: Entry `NC(N)=NS(=O)(=O)c1ccc(N/N=C2/CCOC2=O)cc1` , system TK-10 renal: what TGI was measured?
Ans: > 100 µM

Q: Entry `CCCCOC(=O)c1ccc(N)cc1` , system TK-10 renal: what TGI was measured?
Ans: > 100 µM

Q: Entry NC(N)=NCC1CCCCCCN1 (configuration not stated) , system TK-10 renal: what TGI was measured?
Ans: > 100 µM

Q: Entry `CCCCCCCCCCCCCCCCCc1nccn1CCOCCO` , system TK-10 renal: what TGI was measured?
Ans: 10.4 µg/mL

Q: Entry CCCCCCCCCCCCOP(=O)(O)OP(=O)(O)OCC1OC(n2ccc(N)nc2=O)CC1O (configuration not stated) , system TK-10 renal: what TGI was measured?
Ans: > 100 µM

Q: Entry `COC(=O)/C=C\C(C#N)(C#N)N=Cc1cccc(OC)c1` , system TK-10 renal: what TGI was measured?
Ans: 4.78 µM

Q: Entry Cc1ccc(C2(c3ccc(Cl)cc3)c3ccccc3C3=NCCN32)cc1 (configuration not stated) , system TK-10 renal: what TGI was measured?
Ans: 18.5 µM

Q: Entry N#CC1(C#N)NC(c2ccccc2)C(C#N)(C#N)NC1c1ccccc1 (configuration not stated) , system TK-10 renal: what TGI was measured?
Ans: > 100 µM

Q: Entry COC(=O)C1CCC(=S)N1C(=O)OCc1ccccc1 (configuration not stated) , system TK-10 renal: what TGI was measured?
Ans: > 100 µM
